quantity.name: MIC (µM)
Report the value in µM with no unit label.

So the reported MIC for "CC(C)C[C@H](NC(=O)[C@H](CCCCN)NC(=O)[C@H](CCCN=C(N)N)NC(=O)[C@H](Cc1cnc[nH]1)NC(=O)[C@H](C)NC(=O)[C@H](CCCN=C(N)N)NC(=O)[C@H](Cc1cnc[nH]1)NC(=O)CNC(=O)[C@H](Cc1ccccc1)NC(=O)[C@H](CCCN=C(N)N)NC(=O)[C@H](CCCN=C(N)N)NC(=O)[C@H](CC(C)C)NC(=O)[C@H](Cc1cnc[nH]1)NC(=O)[C@H](CCCN=C(N)N)NC(=O)CNC(=O)[C@@H](NC(=O)[C@H](CCCCN)NC(=O)[C@@H](N)CO)C(C)C)C(=O)O" , on Lactococcus lactis AS1.1690, turned out to be 18.8

So the reported MIC for "CC(C)C[C@H](NC(=O)[C@H](CCCCN)NC(=O)[C@H](CCCN=C(N)N)NC(=O)[C@H](Cc1cnc[nH]1)NC(=O)[C@H](C)NC(=O)[C@H](CCCN=C(N)N)NC(=O)[C@H](Cc1cnc[nH]1)NC(=O)[C@H](CC(C)C)NC(=O)[C@H](Cc1ccccc1)NC(=O)[C@H](CCCN=C(N)N)NC(=O)[C@H](CCCN=C(N)N)NC(=O)[C@H](CC(C)C)NC(=O)[C@H](Cc1cnc[nH]1)NC(=O)[C@H](CCCN=C(N)N)NC(=O)CNC(=O)[C@@H](NC(=O)[C@H](CCCCN)NC(=O)[C@@H](N)CO)C(C)C)C(=O)O" , on Lactococcus lactis AS1.1690, turned out to be 4.69
